- TEST_DESCRIPTION: Cytotoxicity against HEEC assessed as decrease in cell proliferation after 48 hrs by MTT assay
- Format: toxicity
- TEST_CONTEXT: human, HEEC cells
Field 'label' (enum: t / f). Set to t when IC50 at 48 h is strictly under 30 µM; else f.

For orientation, consider the following solved cases.
COc1cc(C(C2=C(O)C(=O)c3ccccc3C2=O)c2c[nH]c3ccc(Br)cc23)cc(OC)c1OC (stereo not drawn) | f
O=C1C(O)=C(C(c2ccccc2)c2c(-c3ccccc3)[nH]c3ccccc23)C(=O)c2ccccc21 (stereo not drawn) | t
Cc1[nH]c2ccccc2c1C(C1=C(O)C(=O)c2ccccc2C1=O)c1ccc(Cl)cc1 (stereo not drawn) | f
O=C1C(O)=C(C(c2cccc([N+](=O)[O-])c2)c2c(-c3ccccc3)[nH]c3ccccc23)C(=O)c2ccccc21 (stereo not drawn) | t
O=C1C(O)=C(C(c2cccc([N+](=O)[O-])c2)c2c[nH]c3ccccc23)C(=O)c2ccccc21 (stereo not drawn) | f

Task item: Quick check: does COc1ccc(C(C2=C(O)C(=O)c3ccccc3C2=O)c2c[nH]c3ccccc23)cc1Br (stereo not drawn) have IC50 at 48 h under 30 µM?
Reply: t

Task item: Follow-up entry: COc1cccc(C(C2=C(O)C(=O)c3ccccc3C2=O)c2c[nH]c3ccccc23)c1 (stereo not drawn)
Reply: f

Task item: Follow-up entry: O=C1C(O)=C(C(c2cccs2)c2c[nH]c3ccccc23)C(=O)c2ccccc21 (stereo not drawn)
Reply: f

Task item: Follow-up entry: CC[C@@]1(O)C(=O)OCc2c1cc1n(c2=O)Cc2cc3ccccc3nc2-1 [CAMPTOTHECIN]
Reply: t

Task item: Follow-up entry: COc1ccccc1C(C1=C(O)C(=O)c2ccccc2C1=O)c1c[nH]c2ccccc12 (stereo not drawn)
Reply: f

Task item: Follow-up entry: Cc1[nH]c2ccccc2c1C(C1=C(O)C(=O)c2ccccc2C1=O)c1ccc([N+](=O)[O-])cc1 (stereo not drawn)
Reply: t

Task item: Follow-up entry: CC(C)=CCC1=C(O)C(=O)c2ccccc2C1=O [LAPACHOL]
Reply: t

Task item: Follow-up entry: O=C1C(O)=C(C(c2ccc([N+](=O)[O-])cc2)c2c[nH]c3ccccc23)C(=O)c2ccccc21 (stereo not drawn)
Reply: f
